# study-target: human (hACC2) (Homo sapiens)
# Sequence (O00763 whole entry): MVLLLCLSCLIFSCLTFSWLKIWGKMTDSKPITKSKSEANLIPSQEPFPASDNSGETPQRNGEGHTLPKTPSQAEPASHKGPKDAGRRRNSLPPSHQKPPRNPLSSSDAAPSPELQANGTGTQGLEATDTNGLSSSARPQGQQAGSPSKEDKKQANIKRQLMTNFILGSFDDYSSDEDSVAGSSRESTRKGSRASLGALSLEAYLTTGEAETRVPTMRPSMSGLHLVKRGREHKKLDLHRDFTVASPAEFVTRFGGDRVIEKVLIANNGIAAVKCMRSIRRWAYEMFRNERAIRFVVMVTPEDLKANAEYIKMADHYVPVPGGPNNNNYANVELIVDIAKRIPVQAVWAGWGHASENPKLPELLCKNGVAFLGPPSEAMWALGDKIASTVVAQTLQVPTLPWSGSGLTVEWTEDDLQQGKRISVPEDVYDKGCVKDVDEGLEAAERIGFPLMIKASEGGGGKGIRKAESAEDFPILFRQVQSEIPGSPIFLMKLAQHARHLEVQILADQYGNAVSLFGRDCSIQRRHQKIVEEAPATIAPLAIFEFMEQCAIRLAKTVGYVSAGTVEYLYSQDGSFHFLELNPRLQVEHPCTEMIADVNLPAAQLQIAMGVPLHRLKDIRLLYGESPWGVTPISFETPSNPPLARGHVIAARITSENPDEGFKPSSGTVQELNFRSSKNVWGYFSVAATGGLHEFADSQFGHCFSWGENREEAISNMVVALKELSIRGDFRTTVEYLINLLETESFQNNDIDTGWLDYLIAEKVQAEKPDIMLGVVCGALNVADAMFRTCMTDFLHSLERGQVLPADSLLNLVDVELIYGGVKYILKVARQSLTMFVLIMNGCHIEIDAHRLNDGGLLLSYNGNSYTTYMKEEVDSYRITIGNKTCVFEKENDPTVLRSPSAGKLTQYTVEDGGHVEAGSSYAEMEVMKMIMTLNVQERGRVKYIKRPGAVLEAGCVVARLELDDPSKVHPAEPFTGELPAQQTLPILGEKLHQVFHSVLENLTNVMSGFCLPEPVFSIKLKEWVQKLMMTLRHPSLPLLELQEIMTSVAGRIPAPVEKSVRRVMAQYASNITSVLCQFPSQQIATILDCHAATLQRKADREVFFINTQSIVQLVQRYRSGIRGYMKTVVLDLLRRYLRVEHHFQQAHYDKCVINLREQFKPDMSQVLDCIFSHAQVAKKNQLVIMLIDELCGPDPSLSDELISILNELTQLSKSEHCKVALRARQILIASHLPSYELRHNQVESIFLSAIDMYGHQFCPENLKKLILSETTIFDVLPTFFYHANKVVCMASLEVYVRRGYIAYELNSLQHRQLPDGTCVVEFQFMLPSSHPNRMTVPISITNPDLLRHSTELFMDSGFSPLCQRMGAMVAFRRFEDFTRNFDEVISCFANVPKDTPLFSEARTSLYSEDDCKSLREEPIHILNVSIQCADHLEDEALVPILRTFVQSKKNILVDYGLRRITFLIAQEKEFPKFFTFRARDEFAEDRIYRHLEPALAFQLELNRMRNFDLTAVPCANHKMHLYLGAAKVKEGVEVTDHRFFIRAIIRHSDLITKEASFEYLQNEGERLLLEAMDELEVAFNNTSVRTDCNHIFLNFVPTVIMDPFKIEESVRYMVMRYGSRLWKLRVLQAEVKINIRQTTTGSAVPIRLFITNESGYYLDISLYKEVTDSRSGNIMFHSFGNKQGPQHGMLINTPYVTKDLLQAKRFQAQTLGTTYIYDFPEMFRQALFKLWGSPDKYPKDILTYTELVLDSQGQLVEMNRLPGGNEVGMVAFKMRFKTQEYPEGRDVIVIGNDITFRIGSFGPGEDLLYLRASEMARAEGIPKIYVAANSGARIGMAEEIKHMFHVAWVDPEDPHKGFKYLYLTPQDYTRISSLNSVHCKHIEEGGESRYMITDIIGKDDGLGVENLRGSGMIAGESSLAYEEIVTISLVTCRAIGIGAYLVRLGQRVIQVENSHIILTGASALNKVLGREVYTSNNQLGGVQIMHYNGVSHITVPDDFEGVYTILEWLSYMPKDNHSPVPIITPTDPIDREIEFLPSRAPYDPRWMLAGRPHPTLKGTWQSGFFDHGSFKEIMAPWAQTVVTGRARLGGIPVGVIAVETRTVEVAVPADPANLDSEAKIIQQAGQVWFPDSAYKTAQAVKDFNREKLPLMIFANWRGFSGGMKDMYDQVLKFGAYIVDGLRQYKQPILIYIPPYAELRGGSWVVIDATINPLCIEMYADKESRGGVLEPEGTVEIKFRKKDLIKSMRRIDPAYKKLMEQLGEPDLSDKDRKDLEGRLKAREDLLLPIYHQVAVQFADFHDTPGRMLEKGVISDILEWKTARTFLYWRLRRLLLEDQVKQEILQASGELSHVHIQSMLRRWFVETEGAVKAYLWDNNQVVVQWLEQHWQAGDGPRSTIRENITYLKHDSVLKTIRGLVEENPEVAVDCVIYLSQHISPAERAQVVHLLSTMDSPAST
# assay-explanation: In vitro ACC inhibition assay (ADP-Glo), hACC2
# Format: biochemical
# stated-conditions: Table 2b, additional results, 5 nM ACC2, 20 μM ATP, 20 μM acetyl-CoA
What IC50 was measured for each of the following?

Examples with their reported IC50 follow.
compound | study-target | measurement-kind | readout-value
CCNC(=O)C(C)(C)n1c(=O)c2c(C)c(-n3nccn3)sc2n(C[C@H](OCCC#N)c2cc(F)ccc2OC)c1=O | human (hACC2) (Homo sapiens) | IC50 | 5 to 10 nM
COc1ccccc1[C@@H](O)Cn1c(=O)n(C(C)(C)C(N)=O)c(=O)c2c(C)c(-n3nccn3)sc21 | human (hACC2) (Homo sapiens) | IC50 | 10 to 40 nM
CCc1ccc(F)cc1CCn1c(=O)n(C(C)(C)C(=O)NC(C)C)c(=O)c2c(C)c(-n3nccn3)sc21 | human (hACC2) (Homo sapiens) | IC50 | 5 to 10 nM

I'm hoping you can list IC50 for every compound here, please.
1. COc1ccc(F)cc1[C@H](Cn1c(=O)n(C(C)(C)C(=O)N2CCCC2)c(=O)c2c(C)c(-n3nccn3)sc21)OCC(C)=O
2. COc1ccc(F)cc1[C@H](Cn1c(=O)n(C(C)(C)C(=O)NC(C)C)c(=O)c2c(C)c(-n3nccn3)sc21)OCCN(C)C

// result
1: 5 to 10 nM; 2: > 40 nM

All values here come from patent US10800791B2.
